Experiment: in vitro
Format: in vitro ADME
Conditions: human, Caco-2

molecule	efflux ratio at 90 min
CC(=O)OCOC(=O)Nc1ncnn2c([C@]3(C#N)O[C@H](COC(=O)CC4CCCCC4)[C@@H](OC(=O)[C@@H](N)C(C)C)[C@H]3O)ccc12 [Compound 358]	0.33
CCC(=O)O[C@H]1[C@@H](O)[C@](C#N)(c2ccc3c(NC(=O)C(C)C)ncnn23)O[C@@H]1COC(=O)[C@@H](N)C(C)C [Compound 362]	1.5
CC(=O)OC[C@H]1O[C@@](C#N)(c2ccc3c(N)ncnn23)[C@H](O)[C@@H]1OC(=O)CC1CCCCC1 [Compound 50]	0.39
CC(C)C(=O)OC[C@H]1O[C@@](C#N)(c2ccc3c(NC(=O)[C@@H](N)Cc4ccc(F)cc4)ncnn23)[C@H](O)[C@@H]1O [Compound 100]	92
N#C[C@@]1(c2ccc3c(N)ncnn23)O[C@H](COC(=O)CC23CC4CC(CC(C4)C2)C3)[C@@H](O)[C@H]1O [Compound 263]	1.5
CCCCCOC(=O)Nc1ncnn2c([C@]3(C#N)O[C@H](COC(=O)CC4CCCCC4)[C@@H](O)[C@H]3O)ccc12 [Compound 88]	0.78
CCC(=O)O[C@H]1[C@@H](O)[C@](C#N)(c2ccc3c(NC(=O)OCOC(C)=O)ncnn23)O[C@@H]1COC(=O)[C@@H](N)C(C)C [Compound 364]	1.1
CC(C)(C)C(=O)OCOC(=O)Nc1ncnn2c([C@]3(C#N)O[C@H](COC(=O)C(C)(C)C4CCCCC4)[C@@H](O)[C@H]3O)ccc12 [Compound 375]	1.1
N#C[C@@]1(c2ccc3c(N)ncnn23)O[C@H](COC(=O)C2(c3ccccc3)CC2)[C@@H](O)[C@H]1O [Compound 289]	3.8
CNc1nc(N)nc2c1ncn2[C@@H]1O[C@H](COC(=O)C(C)C)[C@@H](O)[C@@]1(C)F [Compound 3]	2
CCCCCCCCCCCCCCCCCCOCCOP(=O)(O)OC[C@H]1O[C@@H](n2cnc3c(NC)nc(N)nc32)[C@](C)(F)[C@@H]1O [Compound 254]	0.8
CC(C)(C)[C@@H](N)C(=O)OC[C@H]1O[C@@](C#N)(c2ccc3c(N)ncnn23)[C@H](O)[C@@H]1O [Compound 411]	20.7
CC(C)(C(=O)OC[C@H]1O[C@@](C#N)(c2ccc3c(N)ncnn23)[C@H](O)[C@@H]1O)C1CCCCC1 [Compound 269]	1.3
N#C[C@@]1(c2ccc3c(N)ncnn23)O[C@H](COC(=O)CC2CCC(C(F)(F)F)CC2)[C@@H](OC(=O)CC2CCC(C(F)(F)F)CC2)[C@H]1O (stereo partly shown) [Compound 271]	8.7
N#C[C@@]1(c2ccc3c(NC(=O)c4ccccc4)ncnn23)O[C@H](CO)[C@@H](O)[C@H]1O [Compound 85]	31
CC(C)(C)C(=O)OCOC(=O)Nc1ncnn2c([C@]3(C#N)O[C@H](CO)[C@@H](OC(=O)CC4CCCCC4)[C@H]3O)ccc12 [Compound 370]	0.77

The measurements presented in this section are drawn from patent US12102648B2.
